# target-of-assay: T1, Cbz-Ala-Ala-AAsn-CH═CH-COOEt
# T1 chain: AAN
measured-metric: kobs/[I]

Papain (protein) IPEYVDWRQKGAVTPVKNQGSCGSCWAFSAVVTIEGIIKIRTGNLNEYSEQELLDCDRRSYGCNGGYPWSALQLVAQYGIHYRNTYPYEGVQRYCRSREKGPYAAKTDGVRQVQPYNEGALLYSIANQPVSVVLEAAGKDFQLYRGGIFVGPCGNKVDHAVAAVGYGPNYILIKNSWGTGWGENGYIRIKRGTGNSYGVCGLYTSSFYPVKN : NI
Caspase-3 (protein) SGISLDNSYKMDYPEMGLCIIINNKNFHKSTGMTSRSGTDVDAANLRETFRNLKYEVRNKNDLTREEIVELMRDVSKEDHSKRSSFVCVLLSHGEEGIIFGTNGPVDLKKITNFFRGDRCRSLTGKPKLFIIQACRGTELDCGIETDSGVDDDMACHKIPVEADFLYAYSTAPGYYSWRNSKDGSWFIQSLCAMLKQYADKLEFMHILTRVNRKVATEFESFSFDATFHAKKQIPCIVSMLTKELYFYH : NI
Caspase-8 (protein) SESQTLDKVYQMKSKPRGYCLIINNHNFAKAREKVPKLHSIRDRNGTHLDAGALTTTFEELHFEIKPHDDCTVEQIYEILKIYQLMDHSNMDCFICCILSHGDKGIIYGTDGQEAPIYELTSQFTGLKCPSLAGKPKVFFIQACQGDNYQKGIPVETDSEEQPYLEMDLSSPQTRYIPDEADFLLGMATVNNCVSYRNPAEGTWYIQSLCQSLRERCPRGDDILTILTEVNYEVSNKDDKKNMGKQMPQPTFTLRKKLVFPSD : NI
